# System: ES2
# Procedure details: cell viability relative to DMSO control (MTS) (fraction of DMSO control); higher = more viable cells / less growth inhibition
# Assay conditions: 10 µM; 48 h
Please use t for cell viability under 0.8 and f for everything else, ties included.

Please review the following examples before continuing.
{"Chemical smiles": "Nc1[nH]nc2nnc(-c3c(-c4ccccc4)nn4ccccc34)cc12", "Label": "f"}
{"Chemical smiles": "C=CC[C@@H]1/C=C(\\C)C[C@H](C)C[C@H](OC)[C@H]2O[C@@](O)(C(=O)C(=O)N3CCCC[C@H]3C(=O)O[C@H](/C(C)=C/[C@@H]3CC[C@@H](O)[C@H](OC)C3)[C@H](C)[C@@H](O)CC1=O)[C@H](C)C[C@@H]2OC", "Label": "f"}
{"Chemical smiles": "CO[C@@]12[C@H](COC(N)=O)C3=C(C(=O)C(C)=C(N)C3=O)N1C[C@@H]1N[C@@H]12", "Label": "t"}

Task item: Does the reported cell viability of C[C@@H]1C[C@H]2[C@@H]3CCC4=CC(=O)C=C[C@]4(C)[C@@]3(F)[C@@H](O)C[C@]2(C)[C@@]1(O)C(=O)CO stay below 0.8?
Reply: f

Task item: State whether 0.8 exceeds cell viability recorded for O=Nc1c(-c2c(O)[nH]c3cc(Br)ccc23)[nH]c2ccccc12 .
Reply: t

====

# Test system: ES2
# Procedure details: cell viability relative to DMSO control (MTS) (fraction of DMSO control); higher = more viable cells / less growth inhibition
# Assay conditions: 10 µM; 48 h
Parameter: cell viability
Write the number on its own, no unit after it.

Task item: Supply measured cell viability of CC(C)C[C@@H](N)[C@H](O)C(=O)N[C@H](C(=O)N[C@H](C(=O)N[C@@H](CC(=O)O)C(=O)O)C(C)C)C(C)C in your reply.
Reply: 0.963

====

This section presents molecules with their documented cell viability values.
# Tested on: TOV-21G
# Procedure details: cell viability relative to DMSO control (MTS) (fraction of DMSO control); higher = more viable cells / less growth inhibition
# Assay conditions: 10 µM; 48 h
Give the value as a plain number.

{"Molecule": "CCCCOc1cc(CC2CNC(=O)N2)ccc1OC (configuration not stated)", "Target of assay": "TOV-21G", "Measurement": 0.999}

Task item: Supply reported cell viability belonging to this molecule: NC(=O)c1ccccc1 [Benzamide]
Reply: 0.989

Task item: Look up cell viability of CC(C)[C@H](CO)Nc1nc(Nc2cccc(Cl)c2)c2ncn(C(C)C)c2n1 [purvalanol A] and report it.
Reply: 0.607

Task item: Indicate its recorded cell viability; the molecule in question is O=C1CCC(N2C(=O)c3ccccc3C2=O)C(=O)N1 (configuration not stated) [thalidomide]
Reply: 0.989

Task item: Respond only with cell viability recorded for O=c1c(-c2ccc(O)cc2)coc2cc(O)cc(O)c12 [Genistein]
Reply: 0.988

Task item: Give reported cell viability value for O=C(Nc1ccc([N+](=O)[O-])cc1O)Nc1ccccc1Br
Reply: 0.605

Task item: Quickly give me recorded cell viability for CO[C@@H]1[C@H](OC(=O)/C=C/C=C/C=C/C=C/C(=O)O)CC[C@]2(CO2)[C@H]1[C@@]1(C)O[C@@H]1CC=C(C)C [Fumagillin]
Reply: 0.991

====

# Tested on: ES2
# Procedure details: cell viability relative to DMSO control (MTS) (fraction of DMSO control); higher = more viable cells / less growth inhibition
# Assay conditions: 10 µM; 48 h
Items are presented alongside their recorded cell viability.
Format: numeric value only, no unit, no commentary.

Task item: Hello, please tell me recorded cell viability for this one: O=c1c2ccccc2[nH]c(=S)n1CCN1CCC(=C(c2ccc(F)cc2)c2ccc(F)cc2)CC1 [Diacylglycerol kinase inhibitor II]
Reply: 1.09

Task item: Supply cell viability value. Item: CCCS(=O)(=O)Nc1ccc(F)c(C(=O)c2c[nH]c3ncc(-c4ccc(Cl)cc4)cc23)c1F [Vemurafenib]
Reply: 0.651

Task item: Read off the recorded cell viability for CSCC[C@H](NC(=O)c1ccc(NC[C@@H](N)CS)cc1-c1ccccc1)C(=O)O
Reply: 1.55

====

The entries below come with measured cell viability values attached.
# System: ES2
# Procedure details: cell viability relative to DMSO control (MTS) (fraction of DMSO control); higher = more viable cells / less growth inhibition
# Assay conditions: 10 µM; 48 h
Enter the number alone.

Use the examples below as a reference point.
{"Molecule": "C[C@@H]1C[C@H]2O[C@@H]2/C=C\\C=C\\C(=O)Cc2c(Cl)c(O)cc(O)c2C(=O)O1 [Radicicol]", "cell viability": 0.533}
{"Molecule": "COc1cc2c(NC3CCN(C(C)C)CC3)nc(C3CCCCC3)nc2cc1OCCCN1CCCC1", "cell viability": 0.337}
{"Molecule": "Cc1cccc(-c2nn3c(c2-c2ccnc4ccc(C(N)=O)cc24)CCC3)n1", "cell viability": 0.988}

Would you kindly look at the next entry?
Task item: State, for ES2, measured cell viability of the molecule listed here: NC(=O)Nc1sc(-c2ccccc2)cc1C(N)=O [IKK-2 inhibitor VI]
Reply: 0.555

====

# Test system: ES2
# Procedure details: cell viability relative to DMSO control (MTS) (fraction of DMSO control); higher = more viable cells / less growth inhibition
# Assay conditions: 10 µM; 48 h
Counter-ions that a name gives are not always drawn.
API: label(entry) gives true (1) if the entry's cell viability is strictly smaller than 0.9; on equality or larger values it gives false (0).

Example entries and their recorded answers appear below.
{"Compound": "CN(C)CCCN1c2ccccc2Sc2ccc(Cl)cc21 [chlorpromazine hydrochloride]", "Label": "false (0)"}
{"Compound": "Ic1cccc(CSc2nnc(-c3ccncc3)o2)c1", "Label": "false (0)"}
{"Compound": "O=C1Nc2ccc(I)cc2/C1=C\\c1cc(Br)c(O)c(Br)c1", "Label": "false (0)"}
{"Compound": "c1ccc2c(-c3cnn4cc(-c5ccc(N6CCNCC6)cc5)cnc34)ccnc2c1", "Label": "true (1)"}
{"Compound": "Oc1ccc(-c2nc(-c3ccc(F)cc3)c(-c3ccncc3)[nH]2)cc1", "Label": "true (1)"}
{"Compound": "CCCCC[C@H](CC(=O)NO)C(=O)N[C@H](C(=O)N1CCC[C@H]1CO)C(C)C", "Label": "false (0)"}
{"Compound": "OC[C@H]1NC[C@H](O)[C@@H](O)[C@@H]1O", "Label": "false (0)"}
{"Compound": "CC(C)[C@H](CO)Nc1nc(Nc2cccc(Cl)c2)c2ncn(C(C)C)c2n1", "Label": "true (1)"}
{"Compound": "CC(=O)N[C@@H](CSC(=O)[C@]1([C@@H](O)C(C)C)NC(=O)[C@H](C)[C@@H]1O)C(=O)O", "Label": "true (1)"}
{"Compound": "CCN1/C(=C/C(C)=O)Sc2ccc(OC)cc21", "Label": "true (1)"}

Task item: A record lists COc1cc2nc(N3CCCN(C)CC3)nc(NC3CCN(Cc4ccccc4)CC3)c2cc1OC . Is its cell viability below 0.9?
Reply: true (1)

Task item: Input Cc1c[nH]c(/C=C2\C(=O)Nc3ccccc32)c1CCC(=O)O ; condition: cell viability strictly below 0.9. Does it hold?
Reply: false (0)

Task item: Field: below-cutoff. Rule: recorded cell viability strictly less than 0.9. Subject: Cc1cccc(-c2nn(C(=S)Nc3ccccc3)cc2-c2ccnc3ccccc23)n1
Reply: true (1)

Task item: I wonder whether CO[C@H]1C[C@@H]2CC[C@@H](C)[C@@](O)(O2)C(=O)C(=O)N2CCCC[C@H]2C(=O)O[C@H]([C@H](C)C[C@@H]2CC[C@@H](O)[C@H](OC)C2)CC(=O)[C@H](C)/C=C(\C)[C@@H](O)[C@@H](OC)C(=O)[C@H](C)C[C@H](C)/C=C/C=C/C=C/1C has cell viability below 0.9. Can you tell?
Reply: true (1)

Task item: API: query returns whether the compound falls strictly under 0.9 in cell viability. Query: O=[N+]([O-])c1ccc(-c2nc(-c3ccc(F)cc3)c(-c3ccncc3)[nH]2)cc1
Reply: true (1)

Task item: Given CN(C)CC[C@H](CSc1ccccc1)Nc1ccc(S(=O)(=O)NC(=O)c2ccc(N3CCN(Cc4ccccc4-c4ccc(Cl)cc4)CC3)cc2)cc1[N+](=O)[O-] , is recorded cell viability strictly lower than 0.9?
Reply: true (1)

Task item: Does Nc1cccc2c1CN(C1CCC(=O)NC1=O)C2=O (configuration not stated) [lenalidomide] have cell viability strictly under 0.9?
Reply: false (0)

Task item: In the record for Cc1ncc2ccccc2c1C#N , is cell viability less than 0.9?
Reply: false (0)

====

# Test system: ES2
# Procedure details: cell viability relative to DMSO control (MTS) (fraction of DMSO control); higher = more viable cells / less growth inhibition
# Assay conditions: 10 µM; 48 h
Parameter: cell viability
Kindly provide the number alone.

{"Molecule": "CCOC(=O)C1=C(C)NC(=S)NC1c1cccc(O)c1 (centres undefined)", "Measurement": 0.884}
{"Molecule": "CN(C)S(=O)(=O)c1ccc2c(c1)/C(=C/c1cc3c([nH]1)CCCC3)C(=O)N2", "Measurement": 1.03}
{"Molecule": "CC(C)CC(NC(=O)CNC(=O)OCc1ccccc1)C(=O)NC(Cc1ccccc1)C(=O)CCl (centres undefined)", "Measurement": 0.398}

Task item: Consider the molecule NS(=O)(=O)c1ccc(Nc2nc(OCC3CCCCC3)c3[nH]cnc3n2)cc1 tested on ES2; state its cell viability.
Reply: 0.699
